Read-out: Interleukin 6 (IL6), IL6 (gene 3569)
ASSAY OVERVIEW: BSK_BT_xIL6: BioMAP Diversity Plus: BT Assay for Interleukin 6 (IL6) Biomarker Activity (AID 2284228)
ASSAY SETUP: primary human B cells with PBMC
The source made the active and inactive calls. Rule for the calls: active = hit-call score of the fitted dose curve at least 0.9, where 1 is the maximum; inactive = score below 0.9.
PROPERTY NAME: AC50

Known AC50 results, listed for orientation:
[
  {
    "MOLECULE": "CCc1cc(C)cc(CC)c1-c1c(OC(=O)C(C)(C)C)n2n(c1=O)CCOCC2",
    "AC50": "inactive"
  },
  {
    "MOLECULE": "CNC(=O)Oc1cc(C)c(SC)c(C)c1",
    "AC50": "8.6 µM (active)"
  },
  {
    "MOLECULE": "O=c1[nH]c(Cl)c(Cl)cc1Cl",
    "AC50": "inactive"
  },
  {
    "MOLECULE": "CCC(C)c1cc([N+](=O)[O-])cc([N+](=O)[O-])c1OC(=O)C=C(C)C (stereo not given)",
    "AC50": "20 µM (active)"
  },
  {
    "MOLECULE": "CC(C)CCCCCCCOC(=O)c1ccccc1C(=O)OCCCCCCCC(C)C",
    "AC50": "inactive"
  },
  {
    "MOLECULE": "O=C1C(Cl)=C(Cl)C(=O)C(Cl)=C1Cl",
    "AC50": "30.3 µM (active)"
  }
]

The following molecules each have a reported value; give each one's AC50.
1. Cc1ccc(OP(=O)(Oc2ccc(C)cc2)Oc2ccc(C)cc2)cc1 (tested in a mixture with another compound)
2. O=c1c2ccccc2c(=O)c2c1cc(Cl)c1[nH]c3c([nH]c12)c(Cl)cc1c(=O)c2ccccc2c(=O)c13
3. O=[N+]([O-])C=Cc1ccccc1
4. CC(=O)/C=C/c1ccccc1
5. CCCCCCCCCCCC#N
6. CCCOC(=O)c1ccccc1C(=O)OCCC

Marked response:
1. 13.2 µM (active)
2. inactive
3. 5.28 µM (active)
4. 20 µM (active)
5. inactive
6. inactive

The following molecules each have a reported value; give each one's AC50.
1. CC(C)(C)C(O)C(Oc1ccc(-c2ccccc2)cc1)n1cncn1 (stereo not given)
2. C=CCN(CC=C)C(=O)C(Cl)Cl
3. COCC(=O)N(c1c(C)cccc1C)N1CCOC1=O

Marked response:
["inactive", "inactive", "inactive"]

====

ASSAY OVERVIEW: CCTE_Shafer_MEA_dev_LDH: CCTE's Lactate Dehydrogenase Assay for Cytotoxicity in the Neural Network Formation Assay, Shafer Lab (AID 2284068);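 note: exposure for twelve days from plating with re-dosing on DIV 5 and 9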
Records with an inconclusive call do not appear. The source made the active and inactive calls. Rule for the calls: active = hit-call score of the fitted dose curve at least 0.9, where 1 is the maximum; inconclusive = response in the unintended direction; inactive = score below 0.9.
PROPERTY NAME: AC50

[
  {
    "COMPOUND": "COC(=O)[C@H]1[C@@H](OC(=O)c2ccccc2)C[C@@H]2CC[C@H]1N2C",
    "AC50": "inactive"
  },
  {
    "COMPOUND": "[CH3][Hg][Cl]",
    "AC50": "182 nM (active)"
  },
  {
    "COMPOUND": "CC(=O)[O-].[Tl+]",
    "AC50": "inactive"
  },
  {
    "COMPOUND": "COP(=O)(OC)SCN1C(=O)c2ccccc2C1=O",
    "AC50": "inactive"
  },
  {
    "COMPOUND": "CC1(C)C(C=C(Cl)Cl)C1C(=O)O[C@H](C#N)c1cccc(Oc2ccccc2)c1 (stereo partly specified)",
    "AC50": "5770 nM (active)"
  }
]

Exam item: Give AC50 for Cc1ccc(OP(=O)(Oc2ccc(C)cc2)Oc2ccc(C)cc2)cc1 (tested in a mixture with another compound)
Marked response: inactive

====

ASSAY OVERVIEW: TOX21_p53_BLA_p5_viability: Viability Assessment in the Tox21 HCT-116 p53 Agonism Beta-lactamase Assay, Phase 5 (AID 2283600)
Results filed as inconclusive are left out. Activity calls are given as the source filed them. Rule for the calls: active = hit-call score of the fitted dose curve at least 0.9, where 1 is the maximum; inconclusive = response in the unintended direction; inactive = score below 0.9.
Hi there, use one of these labels in your reply, thanks! TRUE = active, FALSE = inactive

[
  {
    "MOLECULE": "Clc1ccc2c(c1)C(c1ccccc1)=NCc1nncn1-2",
    "GROUP LABEL": "FALSE"
  },
  {
    "MOLECULE": "CC[C@H]1[C@@H]2C[C@H]3[C@@H]4N(C)c5ccccc5[C@]45C[C@@H](C2C5O)N3[C@@H]1O (some centres undefined)",
    "GROUP LABEL": "FALSE"
  }
]

Exam item: Which result was noted for this molecule in the test: C=CC(=O)OC
Marked response: FALSE

Exam item: Which result was noted for this molecule in the test: COP(N)(=S)Oc1ccccc1C(=O)OC(C)C (centres undefined)
Marked response: FALSE

Exam item: Which result was noted for this molecule in the test: CCN(CC)CCOC(=O)C(O)(c1ccccc1)c1ccccc1
Marked response: FALSE

Exam item: Which result was noted for this molecule in the test: c1ccc(C2(c3ccccc3)CC2C2=NCCN2)cc1 (centres undefined)
Marked response: FALSE

Exam item: Which result was noted for this molecule in the test: N#CC(Cl)(Cl)Cl
Marked response: FALSE

Exam item: Which result was noted for this molecule in the test: CNC(C)[C@@H]1CC[C@@H](N)[C@@H](O[C@H]2[C@H](O)[C@@H](O[C@H]3OC[C@](C)(O)[C@H](NC)[C@H]3O)[C@H](N)C[C@@H]2N)O1 (some centres undefined) (tested in a mixture with another compound)
Marked response: FALSE

Exam item: Which result was noted for this molecule in the test: Cc1coc2c1CCC(C)C2 (centres undefined)
Marked response: FALSE

Exam item: Which result was noted for this molecule in the test: CCC1(c2ccccc2)CCC(=O)NC1=O (centres undefined)
Marked response: FALSE

Exam item: Which result was noted for this molecule in the test: O=C(CCN1CC1)OCC(CO)(COC(=O)CCN1CC1)COC(=O)CCN1CC1
Marked response: FALSE

Exam item: Which result was noted for this molecule in the test: COC(C)(C)CCC[C@H](C)C/C=C/C(C)=C/C(=O)OC(C)C
Marked response: FALSE

Exam item: Which result was noted for this molecule in the test: N#Cc1sc2c(=O)c3ccccc3c(=O)c=2sc1C#N
Marked response: TRUE

Exam item: Which result was noted for this molecule in the test: CC1(C)S[C@@H]2[C@H](N)C(=O)N2[C@H]1C(=O)O
Marked response: FALSE

====

ASSAY OVERVIEW: ATG_PXRE_CIS: Attagene CIS-FACTORIAL HepG2 Assay for human Pregnane X Receptor Element (PXRE) (AID 2282957)
ASSAY SETUP: HepG2 Attagene CIS-FACTORIAL PXRE reporter, mRNA; actives raise or lower the signal
Activity calls are given as the source filed them. The calls were made as follows: active = hit-call score of the fitted dose curve at least 0.9, where 1 is the maximum; inactive = score below 0.9.
Hi there, use one of these labels in your reply, thanks! Y = active, N = inactive

The following molecules have reported results that may help.
[
  {
    "SMILES TEXT": "CCC(Br)(CC)C(=O)NC(N)=O",
    "GROUP LABEL": "Y"
  },
  {
    "SMILES TEXT": "C[N+](C)=CCl",
    "GROUP LABEL": "N"
  },
  {
    "SMILES TEXT": "N#CC(c1ccccc1)c1ccccc1",
    "GROUP LABEL": "Y"
  },
  {
    "SMILES TEXT": "O=C=Nc1ccccc1",
    "GROUP LABEL": "Y"
  },
  {
    "SMILES TEXT": "CC1(C)[C@H](C(=O)O[C@H](C#N)c2cccc(Oc3ccccc3)c2)[C@@H]1C=C(Br)Br",
    "GROUP LABEL": "Y"
  }
]

Exam item: Which result was noted for this molecule in the test: CC(C)C#N
Marked response: Y

Exam item: Which result was noted for this molecule in the test: CCC(C)(C)O
Marked response: N

Exam item: Which result was noted for this molecule in the test: CCOP(=O)(OCC)OCC
Marked response: N

====

ASSAY OVERVIEW: ATG_VDRE_CIS: Attagene CIS-FACTORIAL HepG2 Assay for human Vitamin D Receptor Element (VDRE) (AID 2282968)
ASSAY SETUP: HepG2 VDRE cis-reporter transcription, actives raise or lower the signal
Calls of active or inactive are those of the source. How the source made its calls: active means hit-call score of the fitted dose curve at least 0.9, where 1 is the maximum; inactive means score below 0.9.
Hi there, use one of these labels in your reply, thanks! class 1 (active), class 0 (inactive)

[
  {
    "MOLECULE": "CN(C)C(=O)C(c1ccccc1)c1ccccc1",
    "GROUP LABEL": "class 0"
  },
  {
    "MOLECULE": "CCC(C)c1cc(C(C)(C)C)cc(-n2nc3ccccc3n2)c1O (stereo not drawn)",
    "GROUP LABEL": "class 0"
  }
]

Exam item: Which result was noted for this molecule in the test: C=CC(=O)OCCCCOC(=O)C=C
Marked response: class 1
